Values were extracted from patent US20070065439A1.

Target: T1, IL-1β R11A mutant (human, UniProt P01584 117-269)
T1 construct: site-directed mutant
T1 sequence (P01584 117-269 R127A): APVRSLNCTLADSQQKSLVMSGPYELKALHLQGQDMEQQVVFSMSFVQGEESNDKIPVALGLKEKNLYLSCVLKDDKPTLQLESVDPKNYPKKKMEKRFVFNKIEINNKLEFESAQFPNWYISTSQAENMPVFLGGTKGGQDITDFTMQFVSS
Assay: binding to site-directed IL-1β mutant; X = abrogation of binding
Reported Endpoint: binding result

8.18.1 (antibody, human IgG4, V domains shown, lambda; also called mAb 8.18.1) VH: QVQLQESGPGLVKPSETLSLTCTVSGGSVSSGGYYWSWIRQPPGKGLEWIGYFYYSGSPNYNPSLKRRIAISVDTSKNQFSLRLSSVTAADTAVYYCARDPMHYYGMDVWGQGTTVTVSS VL: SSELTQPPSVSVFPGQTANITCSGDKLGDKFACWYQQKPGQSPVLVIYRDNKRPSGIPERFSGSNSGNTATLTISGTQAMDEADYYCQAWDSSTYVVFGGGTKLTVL	no binding
9.31.1 (antibody, human IgG4, V domains shown, lambda; also called 9.31.3) VH: QVQLVESGGGLVKPGGSLRLSCAASGFTFSDYYMSWIRQAPGKGLEWVSYIRSSGSTIYYADSVKGRFTISRDNAKNSLYLQMNSLRAEDTAVYYCARTPYSGRYHWYFDLWGRGTLVTVS VL: SYELTQPPSVSVSPGQTARITCSGDALPIKYAYWYQHKSGQAPVLVIYEDSKRPSGIPERFSGSSSGTMATLTISGAQVEDEADYYCYSTDSSGNHRVFGGGTKLTVL	no binding
